# Test system: PfAP2-LT AP2 domain (GST-tagged)
# method.notes: gcPBM binding intensity (ln(normalized median fluorescence intensity)); higher = stronger DNA binding
The full ranking holds about 25,000 sequences; the median of “ln(normalized median fluorescence intensity)” is about 8.9, and the highest 2% start at about 10. The full list was thinned out, with the highest values kept by preference.
Think of 10 as a floor: if gcPBM binding intensity (ln) stands on it or above, it is t; beneath it, f.

ATAAGAAGAAGAAAAACACACATATGTAAATATATA [CACACA_site3138] : f
GAATTAAAATAATACGTACACACATGTATAATACAT [CACACA_site1004] : f
AAAAAAAAAAGAAACACACACATATATATATATAAT [CACACA_site5052] : f
AAACATAAGAAACACACACACATATATATATATATA [CACACA_site3642] : t
AATTTTCTACAAATGTGTACTAAATAAAATATTACT [XGTACX_site7175] : f

====

# Test system: PfAP2-LT AP2 domain (GST-tagged)
# method.notes: gcPBM binding intensity (ln(normalized median fluorescence intensity)); higher = stronger DNA binding
Whole data set: some 25,000 sequences, median “ln(normalized median fluorescence intensity)” near 8.9, cut for the highest 2% near 10. The full list was thinned out, with the highest values kept by preference.
Measured gcPBM binding intensity (ln) values are reported for all entries that follow.
observable: gcPBM binding intensity (ln)

ATATATTAATATGTGTGTACTTAACCATTCATATGT [XGTACX_site7395] : 9.1
AAATTGAATTAGTTAACACACAACTTTTATTTCATA [CACACA_site2840] : 8.74
AGGCACGTGTTATATACACACATAATCAAATAAACT [CACACA_site7852] : 9.36
ATTTCTCTATCGTAATGTACATAAAAAATGAAAAAA [XGTACX_site1201] : 8.51
TTATAATAAAATGAATATATATAATTTAAAATATTT [CACACA_negctrl_site1651] : 8.27

====

Measured gcPBM binding intensity (ln) values are reported for all entries that follow.
# Test system: PfAP2-LT AP2 domain (GST-tagged)
# method.notes: gcPBM binding intensity (ln(normalized median fluorescence intensity)); higher = stronger DNA binding
In all, about 25,000 sequences were measured (“ln(normalized median fluorescence intensity)”: median about 8.9, highest 2% from about 10 on). This excerpt belongs to a sample that is enriched for the highest values.
observable: gcPBM binding intensity (ln)

TATAAAATTACATTTTGTCATTTATTTTTTCCCACT [TGCATGCA_negctrl_site110] : 8.54
TAAAATTTATAAACTACACACATATATATAGTAATA [CACACA_site3728] : 8.8
ATTATGTGCCAATACACACACACATCTATATTTATA [CACACA_site6359] : 9.67
AAAAAATAAATAAATAGTACTTTAAAAGAAAAAAAA [XGTACX_site5051] : 8.55
TACAAATATATATGCACACACATATCTGTATATGTG [CACACA_site5663] : 9.58

====

# System: PfAP2-LT AP2 domain (GST-tagged)
# method.notes: gcPBM binding intensity (ln(normalized median fluorescence intensity)); higher = stronger DNA binding
Over roughly 25,000 sequences, “ln(normalized median fluorescence intensity)” has its median near 8.9; the highest 2% begin near 10. The entries come from a sample that favours the highest values as a whole.
Measured gcPBM binding intensity (ln) values are reported for all entries that follow.
observable: gcPBM binding intensity (ln)

TATAAATATACACCCACACACATATATATATATATA [CACACA_site3745] : 9.94
TTCATTTATATAATCACACATTTTATCATCTATGTT [CACACA_site4327] : 8.98
TATACATATACATATACACACACACCCATAAATAAA [CACACA_site8372] : 9.8
ATATTATATATGTATAGTACATATTATAAGAAAAAT [XGTACX_site3457] : 8.87
GCCAAAAGGATATGCACACACACACCCATATATATA [CACACA_site2198] : 9.94
TAAAAGGATACATATACACACATATATATATATATA [CACACA_site2791] : 9.72
ATAAAGCACACCGACACACACATATTTATATTTATA [CACACA_site6620] : 9.68
TTTTTTTTTTAAATGTGTCCTCATTATAATATATGT [XGTACX_site5331] : 8.65
AAAAATGAAAGGTGTACACATACAAACATAGAAAGA [CACACA_site5020] : 9.38
CACCCACCCACATACACACACATACACATATATATA [CACACA_site1722] : 10
CAAAAGGATAGGCACACACACACACCGATATATATA [CACACA_site8685] : 10.1
ATAAAGCACACCGACACACACATATATATATATATA [CACACA_site1047] : 10.5
AGTTTGTCAATCAACACACACCTATTTATTATAGAT [CACACA_site7777] : 9.1
AAATAAAGCACACCGACACACACATATATATATATA [CACACA_site8256] : 10
TGTACCTACAAAATATGATATATTTTTATAAATTGT [XGTACX_negctrl_site498] : 8.51
TACAGATAAAAGTACACACACACACCGATATATATA [CACACA_site4675] : 10.1
CATATATACGCATACACACACACACCCACACCCACA [CACACA_site1725] : 10.2
CATATTATATTTTCATGTACACATAACATATTTATA [XGTACX_site4787] : 8.76
TACATATACATATACACACACACACCCAAATAAATA [CACACA_site1344] : 10
